# test.protocol: Single-center, randomized, open-label, parallel-group single-dose study, 2-mg tablet fasted/fed (Example 5)
# Format: in vivo
# experimental.conditions: both sexes, human, plasma, po, mean, single oral 2-mg tablet, Fed

{"columns": ["compound", "AUC(0-t), ng·h/mL"],
 "data": [
  ["CN(C)C(=O)N[C@H]1CC[C@H](CCN2CCN(c3cccc(Cl)c3Cl)CC2)CC1 [cariprazine]", 89.2]
]}

###

# test.protocol: Linear calculated pharmacokinetic parameters (Table 33)
# Format: in vivo
# experimental.conditions: human, plasma, po, dose 6 mg
observed.property: Cmax (ng/mL)

{"columns": ["smiles.str", "observed.property", "numeric.readout"],
 "data": [
  ["CN(C)C(=O)N[C@H]1CC[C@H](CCN2CCN(c3cccc(Cl)c3Cl)CC2)CC1", "Cmax", 7.6]
]}

###

# test.protocol: Multiple dose study in healthy male volunteers (Example 6)
# Type: in vivo
# experimental.conditions: human, plasma, 0.5 mg, Group II: 14 doses of 0.5 mg every day, fasted, read-out: tmax

{"columns": ["smiles.str", "Tmax"],
 "data": [
  ["CN(C)C(=O)N[C@H]1CC[C@H](CCN2CCN(c3cccc(Cl)c3Cl)CC2)CC1", "3.5 h"]
]}

###

# test.protocol: Double-blind placebo controlled single dose pharmacokinetic study of cariprazine capsules in healthy male volunteers (Example 4)
# Type: in vivo, human
# experimental.conditions: male, human, plasma, oral; mean; single dose 1 mg capsules, fasted; Group I Period 1

{"columns": ["smiles.str", "half-life [h]"],
 "data": [
  ["CN(C)C(=O)N[C@H]1CC[C@H](CCN2CCN(c3cccc(Cl)c3Cl)CC2)CC1", 185]
]}

###

# test.protocol: Single-center, randomized, open-label, parallel-group single-dose study, 2-mg tablet fasted/fed (Example 5)
# Format: in vivo
# experimental.conditions: both sexes, human, plasma, po, mean, single oral 2-mg tablet, Treatment 1 (Fasted), read-out: T½ (converted)

{"columns": ["smiles.str", "half-life (h)"],
 "data": [
  ["CN(C)C(=O)N[C@H]1CC[C@H](CCN2CCN(c3cccc(Cl)c3Cl)CC2)CC1", 203]
]}

###

# test.protocol: Multiple dose study in healthy male volunteers (Example 6)
# Format: in vivo
# experimental.conditions: human, plasma, 0.5 mg, Group I: 7 doses of 0.5 mg every other day, fasted

{"columns": ["smiles.str", "display.unit", "Cmax"],
 "data": [
  ["CN(C)C(=O)N[C@H]1CC[C@H](CCN2CCN(c3cccc(Cl)c3Cl)CC2)CC1", "ng/mL", 1.03]
]}

###

# test.protocol: Linear calculated pharmacokinetic parameters (Table 33)
# Format: in vivo
# experimental.conditions: human, plasma, po, dose 7.5 mg, read-out: Mean AUC0-168
observed.property: AUC(0-t) (ng·h/mL)

{"columns": ["molecule", "numeric.readout"],
 "data": [
  ["CN(C)C(=O)N[C@H]1CC[C@H](CCN2CCN(c3cccc(Cl)c3Cl)CC2)CC1 [cariprazine]", 242]
]}

###

# test.protocol: Multiple dose study in healthy male volunteers (Example 6)
# Format: in vivo
# experimental.conditions: human, plasma, 0.5 mg, Group I: 7 doses of 0.5 mg every other day, fasted, read-out: tmax
observed.property: Tmax (h)

{"columns": ["smiles.str", "display.unit", "numeric.readout"],
 "data": [
  ["CN(C)C(=O)N[C@H]1CC[C@H](CCN2CCN(c3cccc(Cl)c3Cl)CC2)CC1", "h", 4]
]}

###

# test.protocol: Linear calculated pharmacokinetic parameters (Table 33)
# Assay type: in vivo
# experimental.conditions: human, plasma, po, dose 0.25 mg

{"columns": ["smiles.str", "Cmax, ng/mL"],
 "data": [
  ["CN(C)C(=O)N[C@H]1CC[C@H](CCN2CCN(c3cccc(Cl)c3Cl)CC2)CC1", 0.09]
]}

###

# test.protocol: Double-blind placebo controlled single dose pharmacokinetic study of cariprazine capsules in healthy male volunteers (Example 4)
# Assay type: in vivo, human
# experimental.conditions: male, human, plasma, oral; mean; single dose 1.5 mg capsules, fasted; Group II Period 2; read-out: AUC0-168
observed.property: AUC(0-t) (ng·h/mL)

{"columns": ["compound", "display.unit", "numeric.readout"],
 "data": [
  ["CN(C)C(=O)N[C@H]1CC[C@H](CCN2CCN(c3cccc(Cl)c3Cl)CC2)CC1 [cariprazine]", "ng·h/mL", 46.7]
]}

###

# test.protocol: Double-blind placebo controlled single dose pharmacokinetic study of cariprazine capsules in healthy male volunteers (Example 4)
# Format: in vivo, human
# experimental.conditions: male, human, plasma, oral; mean; single dose 2 mg capsules, fasted; Group I Period 2

{"columns": ["smiles.str", "Tmax, h"],
 "data": [
  ["CN(C)C(=O)N[C@H]1CC[C@H](CCN2CCN(c3cccc(Cl)c3Cl)CC2)CC1", 3]
]}

###

# test.protocol: Multiple dose study in healthy male volunteers (Example 6)
# Assay type: in vivo
# experimental.conditions: human, plasma, 0.5 mg, Group I: 7 doses of 0.5 mg every other day, fasted, read-out: AUC0-τ
observed.property: AUC

{"columns": ["compound", "observed.property", "result"],
 "data": [
  ["CN(C)C(=O)N[C@H]1CC[C@H](CCN2CCN(c3cccc(Cl)c3Cl)CC2)CC1 [cariprazine]", "AUC", "32.9 ng·h/mL"]
]}

###

# test.protocol: Multiple dose study in healthy male volunteers (Example 6)
# Assay type: in vivo
# experimental.conditions: human, plasma, Group III: 2 doses of 0.5 mg followed by 12 doses of 1.0 mg every day, fasted, read-out: AUC0-τ

{"columns": ["smiles.str", "AUC"],
 "data": [
  ["CN(C)C(=O)N[C@H]1CC[C@H](CCN2CCN(c3cccc(Cl)c3Cl)CC2)CC1", "53.6 ng·h/mL"]
]}

###

# test.protocol: Double-blind placebo controlled single dose pharmacokinetic study of cariprazine capsules in healthy male volunteers (Example 4)
# Type: in vivo, human
# experimental.conditions: male, human, plasma, oral; mean; single dose 0.5 mg capsules, fasted; Group III Period 1

{"columns": ["smiles.str", "Cmax [ng/mL]"],
 "data": [
  ["CN(C)C(=O)N[C@H]1CC[C@H](CCN2CCN(c3cccc(Cl)c3Cl)CC2)CC1", 0.14]
]}

###

# test.protocol: Single-center, randomized, open-label, parallel-group single-dose study, 2-mg tablet fasted/fed (Example 5)
# Assay type: in vivo
# experimental.conditions: both sexes, human, plasma, po, mean, single oral 2-mg tablet, Fed
# Experimental: The objectives of this study were (i) to assess the effect of food on the oral bioavailability of cariprazine (2-mg tablet), (ii) to assess the effect of gender on the oral bioavailability of cariprazine after a single oral dose (2-mg tablet), and (iii) to evaluate the pharmacokinetics of cariprazine and its metabolites after an oral dose (2-mg tablet). This clinical study was conducted as a single-center, randomized, open-label, parallel-group single-dose study. […]
observed.property: Cmax (ng/mL)

{"columns": ["smiles.str", "numeric.readout"],
 "data": [
  ["CN(C)C(=O)N[C@H]1CC[C@H](CCN2CCN(c3cccc(Cl)c3Cl)CC2)CC1", 1.72]
]}

###

# test.protocol: Multiple dose study in healthy male volunteers (Example 6)
# Format: in vivo
# experimental.conditions: human, plasma, 0.5 mg, Group II: 14 doses of 0.5 mg every day, fasted
observed.property: Cmax (ng/mL)

{"columns": ["molecule", "observed.property", "numeric.readout"],
 "data": [
  ["CN(C)C(=O)N[C@H]1CC[C@H](CCN2CCN(c3cccc(Cl)c3Cl)CC2)CC1 [cariprazine]", "Cmax", 1.42]
]}

###

# test.protocol: Double-blind placebo controlled single dose pharmacokinetic study of cariprazine capsules in healthy male volunteers (Example 4)
# Assay type: in vivo, human
# experimental.conditions: male, human, plasma, oral; mean; single dose 2 mg capsules, fasted; Group I Period 2
# Procedure: The pharmacokinetic parameters described herein include area under the plasma concentration-time curve (AUC0-t and AUC0-∞), maximum plasma concentration (Cmax), time of maximum plasma concentration (Tmax) and terminal elimination half-life (T1/2). The time of maximum concentration, Tmax, is determined as the time corresponding to Cmax. […]
observed.property: half-life (h)

{"columns": ["smiles.str", "observed.property", "display.unit", "numeric.readout"],
 "data": [
  ["CN(C)C(=O)N[C@H]1CC[C@H](CCN2CCN(c3cccc(Cl)c3Cl)CC2)CC1", "half-life", "h", 130]
]}

###

# test.protocol: Linear calculated pharmacokinetic parameters (Table 33)
# Type: in vivo
# experimental.conditions: human, plasma, po, dose 0.25 mg, read-out: Mean AUC0-168

{"columns": ["smiles.str", "AUC(0-t)"],
 "data": [
  ["CN(C)C(=O)N[C@H]1CC[C@H](CCN2CCN(c3cccc(Cl)c3Cl)CC2)CC1", "1.05 ng·h/mL"]
]}

###

# test.protocol: Double-blind placebo controlled single dose pharmacokinetic study of cariprazine capsules in healthy male volunteers (Example 4)
# Assay type: in vivo, human
# experimental.conditions: male, human, plasma, oral; mean; single dose 1 mg capsules, fasted; Group I Period 1; read-out: AUC0-168
observed.property: AUC(0-t) (ng·h/mL)

{"columns": ["molecule", "observed.property", "display.unit", "numeric.readout"],
 "data": [
  ["CN(C)C(=O)N[C@H]1CC[C@H](CCN2CCN(c3cccc(Cl)c3Cl)CC2)CC1 [cariprazine]", "AUC(0-t)", "ng·h/mL", 35.4]
]}
